Recorded values, source patent US20210230266A1.

TESTED ON: T1, Human IL-11 (human, UniProt P20809 22-199)
T1 construct: Recombinant human IL-11 (GenScript Cat. No. Z03108-1) or IL-11 secreted by human cells; the mature form is said to have 178 residues; also called recombinant human IL-11; endogenously produced IL-11
T1 sequence: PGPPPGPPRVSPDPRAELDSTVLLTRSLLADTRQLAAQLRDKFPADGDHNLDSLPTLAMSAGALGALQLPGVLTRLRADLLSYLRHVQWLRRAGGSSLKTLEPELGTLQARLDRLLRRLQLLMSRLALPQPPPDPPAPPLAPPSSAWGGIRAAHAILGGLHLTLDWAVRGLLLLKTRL
EXPERIMENT: ELISA on coated recombinant human IL-11 (100 ng/well), scFv-Fc
Flag rule - EC50 less than 0.03 µg/mL flags T; the remaining entries get F.

BINDER: YU100-H02 (antibody) QVQLQQSGGGVVQPGRSLRLSCAASGFTFSSYGMHWVRQAPGKGLEWVAVISYDGSNKYYADSVKGRFTISRDNSKNTLYLQMNSLRAEDTAVYYCARIMGYDYGDYDVVDYWGQGTLVTVSSGSASAPKLEEGEFSEARVQSALTQPRSVSRSPGQSVTISCTGTSSDVGTYNYVSWYQQHPGKAPKLMIYDVSKRPSGVPDRFSGSKSGNTASLTISGLQAEDEADYYCCSYAGFYTWVFGGGTKLTVL
ASSIGNED LABEL: F
--
BINDER: YU100-D11 (antibody) QVQLVQSGGGVVQPGRSLRLSCAASGFTFSSYGMHWVRQAPGKGLEWVAVISYDGSNKYYADSVKGRFTISRDNSKNTLYLQMNSLRAEDTAVYYCAKIGATDPLDYWGQGTLVTVSSGSASAPKLEEGEFSEARVQSALTQPRSVSGSPGQSVTISCTGTSSNVGGYNYVSWYQQHPGKAPKLMIYDVSKRPSGVPDRFSGSKSGNTASLTISGLQAEDEANYYCASYAGNYNWVFGGGTKLTVLGQPKAAPSVTLFPPSS
ASSIGNED LABEL: F
--
BINDER: YU100-G09 (antibody) EVQLVESGGGVVQPGRSLRLSCAASGFTFSSYGMHWVRQAPGKGLEWVAVISYDGSNKYYADSVKGRFTISRDNSKNTLYLQMNSLRAEDTAVYYCAKIGATDPLDYWGQGTLVTVSSGSASAPKLEEGEFSEARVQSALTQPRSVSGSPGQSVTISCTGTISDVGGYNYVSWYQQHPGKAPKLMIYDVTKRPSGVPDRFSGSKSGNTASLTISGLQAEDEAGYYCSSYAGSYTWVFGGGTKLTVL
ASSIGNED LABEL: T
--
BINDER: YU100-F11 (antibody, V domains shown, light chain-shuffled human anti-IL-11 clone) VH: QVQLVESGGGVVQPGRSLRLSCAASGFTFSSYGMHWVRQAPGKGLEWVAVISYDGSNKYYADSVKGRFTISRDNSKNTLYLQMNSLRAEDTAVYYCAKIGATDPLDYWGQGTLVTVSS VL: QSALTQPASVSGSPGQSITISCTGSSSDVAGYNYVSWYQQHPGKAPKLMIYDVTKRPSGVPDRFSGSKSGNTASLTISGLQAEDEADYYCCSYAGSYTWVFGGGTQLTVLG
ASSIGNED LABEL: T
--
BINDER: YU100-B03 (antibody) QVQLVQSGGGVVQPGRSLRLSCAASGFTFSSYGMHWVRQAPGKGLEWVAVISYDGSNKYYADSVKGRFTISRDNSKNTLYLQMNSLRAEDTAVYYCAKIGATDPLDYWGQGTLVTVSSGSASAPKLEEGEFSEARVQSVLTQPRSVSGSPGRSVTISCTGTSSDVGGYNYVSWYQQHPGKAPKLTLYDVVKRPSGVPDRYSGSKSGNTASLTISGLQAEDEADYYCCSYAGGYTWVFGGGTKVTVV
ASSIGNED LABEL: T
--
BINDER: YU100-G07 (antibody) QVQLVESGGGVVQPGRSLRLSCAASGFTFSSYGMHWVRQAPGKGLEWVAVISYDGSNKYYADSVKGRFTISRDNSKNTLYLQMNSLRAEDTAVYYCAKIGATDPLDYWGQGTLVTVSSGSASAPKLEEGEFSEARVQSALTQPASVSGSPGQSITISCTGTSSDVGAYDYVSWYQQHPGKAPKLMIYDVTNRPSGVSNRFSGSKSGNTASLTISGLQAEDEADYYCASYTRSSVWVFGGGTKLTVL
ASSIGNED LABEL: T
--
BINDER: YU100-E07 (antibody) QVQLQESGGGVVQPGRSLRLSCAASGFTFSSYGMHWVRQAPGKGLEWVAVISYDGSNRYYADSVKGRFAISRDNSKNTLYLQMNSLRAEDTAVYYCAKIGATDPLDYWGQGTLVTVSSGSASAPKLEEGEFSEARVQSALTQPRSVSGSPGQSVTISCTGTSSDVGGYDYVSWYQQHPGKAPELMIYDVTKRPSGVADRFSGSKSGNTASLTISGLQAEDEADYYCCSYAGRYTWVFGGGTKLTVL
ASSIGNED LABEL: T
